The reported measurements were obtained from ChEMBL document CHEMBL4325886.

Assignment: determine reported pIC50 for the given compounds.
Molecular target: Toxin B (Clostridioides difficile, UniProt P18177)
Sequence (P18177 whole entry, the tested form may be a part): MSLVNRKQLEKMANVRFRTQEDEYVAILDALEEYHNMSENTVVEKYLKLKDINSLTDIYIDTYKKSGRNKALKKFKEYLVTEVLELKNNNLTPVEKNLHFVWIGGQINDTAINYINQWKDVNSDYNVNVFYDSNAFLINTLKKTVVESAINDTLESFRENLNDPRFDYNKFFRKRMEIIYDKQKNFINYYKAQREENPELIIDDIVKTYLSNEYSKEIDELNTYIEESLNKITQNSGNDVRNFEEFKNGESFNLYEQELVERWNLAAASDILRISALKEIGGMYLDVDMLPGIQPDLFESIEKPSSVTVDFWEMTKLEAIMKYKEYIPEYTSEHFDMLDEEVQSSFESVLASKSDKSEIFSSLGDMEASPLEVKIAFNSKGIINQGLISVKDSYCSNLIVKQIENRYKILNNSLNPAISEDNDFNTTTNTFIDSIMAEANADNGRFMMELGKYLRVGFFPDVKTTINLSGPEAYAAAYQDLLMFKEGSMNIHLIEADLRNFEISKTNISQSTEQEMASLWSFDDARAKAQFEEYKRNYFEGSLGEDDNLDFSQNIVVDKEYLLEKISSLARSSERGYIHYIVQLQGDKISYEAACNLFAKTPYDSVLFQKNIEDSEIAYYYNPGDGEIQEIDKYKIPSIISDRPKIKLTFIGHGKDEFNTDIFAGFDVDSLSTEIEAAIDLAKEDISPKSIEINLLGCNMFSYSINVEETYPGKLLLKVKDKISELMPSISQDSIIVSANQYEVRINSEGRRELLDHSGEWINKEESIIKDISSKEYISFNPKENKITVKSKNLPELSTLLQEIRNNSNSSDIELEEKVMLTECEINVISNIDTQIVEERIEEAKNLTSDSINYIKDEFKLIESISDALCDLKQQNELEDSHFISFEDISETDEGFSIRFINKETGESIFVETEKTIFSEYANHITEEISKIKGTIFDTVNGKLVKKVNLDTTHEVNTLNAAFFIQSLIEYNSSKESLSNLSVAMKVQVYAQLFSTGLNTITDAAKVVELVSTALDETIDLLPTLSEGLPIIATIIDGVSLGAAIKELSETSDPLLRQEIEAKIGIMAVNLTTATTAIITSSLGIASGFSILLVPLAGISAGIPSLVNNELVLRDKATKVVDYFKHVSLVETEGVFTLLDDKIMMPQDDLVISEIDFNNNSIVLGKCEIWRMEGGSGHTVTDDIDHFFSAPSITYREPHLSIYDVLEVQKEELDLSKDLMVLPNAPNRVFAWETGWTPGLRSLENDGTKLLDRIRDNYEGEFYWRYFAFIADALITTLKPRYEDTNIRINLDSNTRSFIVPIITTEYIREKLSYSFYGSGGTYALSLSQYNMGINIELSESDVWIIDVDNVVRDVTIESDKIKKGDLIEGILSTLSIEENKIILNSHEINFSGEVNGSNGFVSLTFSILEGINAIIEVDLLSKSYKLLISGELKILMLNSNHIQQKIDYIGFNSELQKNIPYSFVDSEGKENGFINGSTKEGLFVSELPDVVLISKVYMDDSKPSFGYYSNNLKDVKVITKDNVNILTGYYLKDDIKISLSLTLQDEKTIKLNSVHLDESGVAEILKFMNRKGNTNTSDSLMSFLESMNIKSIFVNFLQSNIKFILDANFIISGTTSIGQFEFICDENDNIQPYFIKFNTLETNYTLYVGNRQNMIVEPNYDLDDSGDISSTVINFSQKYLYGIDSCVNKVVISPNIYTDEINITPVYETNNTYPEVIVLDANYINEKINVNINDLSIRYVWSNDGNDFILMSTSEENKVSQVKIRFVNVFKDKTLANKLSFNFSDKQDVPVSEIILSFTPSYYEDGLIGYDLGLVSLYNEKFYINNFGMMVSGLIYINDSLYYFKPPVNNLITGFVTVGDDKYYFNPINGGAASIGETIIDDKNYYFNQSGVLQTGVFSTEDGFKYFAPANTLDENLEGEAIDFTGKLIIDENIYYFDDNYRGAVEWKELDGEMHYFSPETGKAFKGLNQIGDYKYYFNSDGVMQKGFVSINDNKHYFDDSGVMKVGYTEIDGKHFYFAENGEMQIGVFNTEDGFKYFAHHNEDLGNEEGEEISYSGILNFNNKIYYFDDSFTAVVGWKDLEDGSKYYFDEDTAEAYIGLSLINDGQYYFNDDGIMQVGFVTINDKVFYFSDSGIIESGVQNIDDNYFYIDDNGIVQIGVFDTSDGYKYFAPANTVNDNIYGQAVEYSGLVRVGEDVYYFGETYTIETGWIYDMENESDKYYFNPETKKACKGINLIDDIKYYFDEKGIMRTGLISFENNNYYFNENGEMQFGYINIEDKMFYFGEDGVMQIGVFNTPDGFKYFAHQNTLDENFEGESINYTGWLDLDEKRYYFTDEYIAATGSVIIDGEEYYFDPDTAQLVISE
Assay: Inhibition of C-terminal 6-His tagged recombinant Clostridium difficile toxin B glucosyltransferase domain assessed as reduction in UDP-glucose hydrolysis activity using UDP-glucose substrate and ADP Alexa633 tracer incubated for 3 hrs by fluorescence polarization assay
One number for each entry, as −log10 of the molar value.

Please review the entries below; each comes with its answer.
>  <STRUCTURE SMILES STRING>
COc1ccc(NC(=O)c2ccc(CN3C(=O)c4ccc(Cl)cc4NC(=O)[C@H]3Cc3ccccn3)cc2OC)nc1

>  <pIC50>
8.30

$$$$
>  <STRUCTURE SMILES STRING>
COc1cnc(NC(=O)c2ccc(CN3C(=O)c4ccc(Cl)cc4NC(=O)[C@H]3Cc3ccccn3)cc2C)nc1

>  <pIC50>
8.40

$$$$
>  <STRUCTURE SMILES STRING>
COc1ccc(NC(=O)c2ccc(CN3C(=O)c4ccc(Cl)cc4NC(=O)[C@H]3Cc3ccccn3)cc2C)nc1

>  <pIC50>
8.00

$$$$
>  <STRUCTURE SMILES STRING>
O=C(O)c1ccc(CN2C(=O)c3ccc(Cl)cc3NC(=O)[C@H]2Cc2ccccn2)cc1Cl

>  <pIC50>
6.32

$$$$
>  <STRUCTURE SMILES STRING>
COc1cnc(NC(=O)c2ccc(CN3C(=O)c4ccc(Cl)cc4NC(=O)[C@H]3Cc3ccccn3)cc2Cl)nc1

>  <pIC50>
8.40

$$$$
>  <STRUCTURE SMILES STRING>
Cc1ccc(C(=O)c2ccc(CN3C(=O)c4ccc(Cl)cc4NC(=O)[C@H]3Cc3ccccn3)cc2)nc1

>  <pIC50>
7.42

$$$$
>  <STRUCTURE SMILES STRING>
Cc1cnc(NC(=O)c2ccc(CN3C(=O)c4ccc(Cl)cc4NC(=O)[C@H]3Cc3ccccn3)cc2Cl)nc1

>  <pIC50>
8.40

$$$$
>  <STRUCTURE SMILES STRING>
Cc1cc(CN2C(=O)c3ccc(Cl)cc3NC(=O)[C@H]2Cc2ccccn2)ccc1C(=O)Nc1ccc(F)cn1

>  <pIC50>
8.10

$$$$

Look at each compound and report its pIC50.
1. Cn1cnc(C(=O)c2ccc(CN3C(=O)c4ccc(Cl)cc4NC(=O)[C@H]3Cc3ccccn3)cc2)c1
2. COc1cc(CN2C(=O)c3ccc(Cl)cc3NC(=O)[C@H]2Cc2ccccn2)ccc1C(=O)Nc1ccc(F)cn1
3. O=C(Nc1ccc(C(F)(F)F)cn1)c1ccc(CN2C(=O)c3ccc(Cl)cc3NC(=O)[C@H]2Cc2ccccn2)cc1Cl
4. O=C(c1ccc(CN2C(=O)c3ccc(Cl)cc3NC(=O)[C@H]2Cc2ccccn2)cc1)c1cccn2ccnc12

Outgoing:
6.64
7.85
7.74
8.10

Incoming: Query: pIC50; subject: `Cc1ccc(NC(=O)c2ccc(CN3C(=O)c4ccc(Cl)cc4NC(=O)[C@H]3Cc3ccccn3)cc2Cl)nc1`
Outgoing: 8.30
